Biological target: Cellular tumor antigen p53 (Homo sapiens)
Test: nuclear p53 accumulation, HPV+ cells – imaging, p53-positive nuclei imaging, 24 h, 48 h (AID 1508601)
Conditions: 24/48 h, Library stock concentration: 10 mM, stronger effect = higher value
About 85 (1%) of roughly 5,700 compounds were called active. This is one part of a sample in which actives are shown more often than they occur.
measurement.label: p53-positive nuclei, normalised (%)
The figure you give is taken to be in %; do not add the unit.

Cn1cc(C2=C(c3cn(CCCSC(=N)N)c4ccccc34)C(=O)NC2=O)c2ccccc21	70.5

Record CCCCc1nc2cc(C=CC(=O)NO)ccc2n1CCN(CC)CC . Reported p53-positive nuclei, normalised: 84.9

Record C=C1C(=O)OC(CCCCCCCC)C1C(=O)O (stereo not given) . Reported p53-positive nuclei, normalised: 0.0835

Record Nc1ncn([C@@H]2O[C@@H](CO)[C@H](O)[C@@H]2O)c(=O)n1 . Reported p53-positive nuclei, normalised: 0.325
